- System: YSK1
- Construct: gene STK25
- conditionSummary: concentration: 1 μM, replicates: in singlicate; n = 1
Field: %Inh. Provide a value for each of the compounds that follow.
Write it as a number; the unit % goes unstated.

Q. Which measured %Inh value corresponds to CCc1ccc(-c2ccc3c(c2)-c2n[nH]cc2S(=O)(=O)N3C)cc1 ?
A. 0

Q. Consider the compound shown here: O=C(Nc1n[nH]c2nc(-c3ccco3)c(Br)cc12)C1CCN(Cc2ccccc2)C1.O=C(O)[C@H](O)[C@@H](O)C(=O)O (stereo not shown) What is its recorded %Inh?
A. 0

Q. Which %Inh is listed for COc1ccc(Nc2nccc(N3CCC(NC(=O)c4cc5ccccc5s4)C3)n2)cc1 (stereo not shown) ?
A. 7

Q. %Inh lookup needed for CNCc1ccc2nc(NC(=O)c3ccc(C(C)(C)C)cc3)cn2c1 , thanks.
A. 7

---

Consider the following molecules; for each one, report its %Inh.
- Test system: PRKCE
- conditionSummary: concentration: 1 μM, replicates: in singlicate; n = 1
# number only, unit % dropped from output

Q. %Inh for Cc1ccc(NC(=O)Nc2ccccc2F)cc1-c1ccc(C(=O)Nc2ccncc2)cc1 ?
A. 4

Q. Could you tell me which %Inh is on file for COC(=O)C(NC(=O)NC1CCN(c2ccnc(Nc3ccc(F)cc3)n2)C1)c1ccccc1 (stereo not drawn) ?
A. 18

Q. Endpoint output: %Inh of Cn1cncc1-c1cc2c(Nc3ccc(OCc4ccccc4)cc3)ncnc2cn1 . Value?
A. 4

Q. I'd like to know its %Inh. The molecule in question is CCc1ccc(-c2ccc3c(c2)-c2n[nH]cc2S(=O)(=O)N3C)cc1
A. 14

Q. Please give the measured %Inh for this molecule: COc1ccc(CSc2nnc(-c3ccc4ncsc4c3)o2)cc1C(F)(F)F
A. 0

Q. Suppose we examine the molecule O=C1NC(=O)C(c2ccc(Cl)cc2)=C1Nc1ccc(O)cc1 ; what %Inh value has been reported?
A. 1

Q. Consider the molecule shown here: COc1ccc(Nc2nccc(-c3ccc(NC(=O)c4cc5cc(F)ccc5[nH]4)cc3)n2)cc1 What is its recorded %Inh?
A. 6

Q. What value of %Inh has been recorded for this entry: CNCc1ccc2nc(NC(=O)c3ccc(C(C)(C)C)cc3)cn2c1
A. 12

Q. I am curious: what %Inh value has been reported for Nc1ncnc2occ(-c3ccc4c(c3)CCN4C(=O)Cc3cc(F)ccc3F)c12 ?
A. 0

---

Would you mind telling me the reported Kd of each entry?
Unit µM implied. Number only.

Q. Form field - read-out: Kd; system: EPHB6; submitted item: FC(F)(F)c1ccccc1-c1cc(-c2c[nH]nc2-c2ccccn2)ccn1 [GW679396]
A. 8.5

Q. Which measured Kd belongs to Nc1ncnc2occ(-c3ccc4c(c3)CCN4C(=O)Cc3cc(F)ccc3F)c12 [GSK2645446] , tested on EPHB6?
A. 0.5

---

Record form. Attribute: %Inh. Fill in for each entry.
- System: MTOR
- conditionSummary: concentration: 1 μM, replicates: in singlicate; n = 1
# value in %; strip the unit string

Q. # query: %Inh of entry CCn1c(-c2c(N)noc2C)nc2cnccc21
A. 28

Q. Need %Inh, item COc1ccc(-c2coc3ccc(-c4nnc(C)o4)cc23)cc1
A. 5

Q. // returns reported %Inh for input CCc1ccc(-c2ccc3c(c2)-c2n[nH]cc2S(=O)(=O)N3C)cc1
A. 0

Q. I would be grateful if you could share the reported %Inh for CC(C)c1ccc(O)cc1Nc1ccnc2ccc(C(F)(F)F)cc12 .
A. 6

Q. What does the record list as %Inh for Cc1cccc2c(-c3ccncn3)c(-c3ccc(F)cc3)nn12 ?
A. 9

---

Give measured %Inh for each item. Keep answers brief.
- Test system: FGR
- conditionSummary: concentration: 1 μM, replicates: in singlicate; n = 1
Please state the figure in %; there is no need to write the unit.

Q. May I ask what %Inh has been recorded for CC(=O)c1c(C)c2cnc(Nc3ccn(C)n3)nc2n(C2CCCC2)c1=O ?
A. 0

Q. Which measured %Inh value corresponds to Fc1ccc(-c2nc[nH]c2-c2ccncc2)cc1 ?
A. 0

Q. Record request: %Inh value, item CCn1c(-c2ccccc2)nc2cnccc21
A. 22

Q. Could you share which %Inh value was measured for Nc1cccc(-c2ccc3c(N)n[nH]c3c2)n1 ?
A. 10

Q. %Inh lookup needed for CC(C)c1ccc(O)cc1Nc1ccnc2ccc(C(F)(F)F)cc12 , thanks.
A. 9

Q. What value of measured %Inh is listed for COc1ccc(Nc2nccc(-c3ccc(NC(=O)c4cc5cc(F)ccc5[nH]4)cc3)n2)cc1 ?
A. 10

Q. Which %Inh value is on record for O=c1cc(N2CCOCC2)nc2n(Cc3ccccc3F)ccn12 ?
A. 4

Q. What measured %Inh goes with O=C(Nc1n[nH]c2nc(-c3ccco3)c(Br)cc12)C1CCN(Cc2ccccc2)C1.O=C(O)[C@H](O)[C@@H](O)C(=O)O (stereo not drawn) ?
A. 6

Q. Please report the recorded %Inh for CNC(=O)c1ccc(C)c(-n2c(C)cc(OCc3ccc(F)cc3F)c(Br)c2=O)c1 .
A. 0

---

- Test system: CDC2L5
- Construct: gene CDK13
- conditionSummary: concentration: 1 μM, replicates: in singlicate; n = 1
propertyMeasured: %Inh (%)
Express the result in % but write the number alone.

Q. Dear colleague, I am looking for the recorded %Inh of the following compound: Cc1ccc(NC(=O)Nc2ccccc2)cc1-c1ccc(C(=O)Nc2ccncc2)cc1
A. 0

Q. I would be grateful if you could share the reported %Inh for COc1ccc(CSc2nnc(-c3ccc4nccn4c3)o2)cc1C(F)(F)F .
A. 50

Q. Which value of %Inh has been reported for COc1ccc(-c2coc3ccc(-c4nnc(C)o4)cc23)cc1 in the records?
A. 21

Q. Which %Inh is reported for this compound? Cc1cccc2c(-c3ccncn3)c(-c3ccc(F)cc3)nn12
A. 0

Q. // %Inh lookup, key: O=c1cc(N2CCOCC2)nc2n(Cc3ccccc3F)ccn12
A. 0

Q. Bench note: what %Inh did CN1c2ccc(-c3ccc(C(N)=O)cc3)cc2-c2[nH]ncc2S1(=O)=O show?
A. 2

Q. What %Inh value was documented for this compound, NS(=O)(=O)c1cccc(N/C=C2\C(=O)Nc3ccc(S(=O)(=O)Cc4c(Cl)cccc4Cl)cc32)c1 ?
A. 0

Q. Item under review: COc1ccc(Nc2nccc(N3CCC(NC(=O)c4cc5ccccc5s4)C3)n2)cc1 (stereo not drawn) . Reported %Inh?
A. 0

Q. %Inh lookup needed for O=C(Nc1n[nH]c2nc(-c3cccs3)c(Br)cc12)C1CC1 , thanks.
A. 24

---

- Test system: RSK2(Kin.Dom.1-N-terminal)
- Construct: gene RPS6KA3
- conditionSummary: concentration: 1 μM, replicates: in singlicate; n = 1
propertyMeasured: %Inh (%)
Use % as the unit, but write only the number.

Q. Would you kindly share the measured %Inh for CNC(=O)c1ccc(C)c(-n2c(C)cc(OCc3ccc(F)cc3F)c(Br)c2=O)c1 ?
A. 0

Q. Item under review: NS(=O)(=O)c1cccc(N/C=C2\C(=O)Nc3ccc(S(=O)(=O)Cc4c(Cl)cccc4Cl)cc32)c1 . Reported %Inh?
A. 6

Q. What value of measured %Inh is listed for COC(=O)C(NC(=O)NC1CCN(c2ccnc(Nc3ccc(F)cc3)n2)C1)c1ccccc1 (stereo not shown) ?
A. 0

Q. What does the record list as %Inh for Cl.Cl.Cl.N#Cc1ccc(CCNc2nccc(-c3cccc(CN4CCNCC4)c3)n2)cc1 ?
A. 0

---

- System: DYRK2
propertyMeasured: pKd
Reminder that pKd is minus the log10 of a molar concentration.

Q. Any idea what pKd was measured for CNc1cc(-c2ccc3c(N)n[nH]c3c2)nc(N)n1 [GSK2224810] ?
A. 7.48

---

Assign %Inh to each entry below.
- Test system: STK39
- conditionSummary: concentration: 1 μM, replicates: in singlicate; n = 1
Reply with just the number (in %).

Q. Could you share which %Inh value was measured for O=C(Nc1n[nH]c2nc(-c3cccs3)c(Br)cc12)C1CC1 ?
A. 7

Q. Consider the compound shown here: O=c1cc(N2CCOCC2)nc2n(Cc3ccccc3F)ccn12 What is its recorded %Inh?
A. 0

Q. # get_value(readout='%Inh', item= O=C(Nc1n[nH]c2nc(-c3ccco3)c(Br)cc12)C1CCN(Cc2ccccc2)C1.O=C(O)[C@H](O)[C@@H](O)C(=O)O (stereo not shown) )
A. 1

Q. Fill in: %Inh of COC(=O)C(NC(=O)NC1CCN(c2ccnc(Nc3ccc(F)cc3)n2)C1)c1ccccc1 (stereo not shown) is ___
A. 0

Q. Given the compound CS(=O)(=O)CCNCc1nc(-c2ccc3ncnc(Nc4ccc5c(cnn5Cc5ccccc5)c4)c3c2)cs1.Cl.Cl , what is its reported %Inh?
A. 0

Q. Value lookup for %Inh; key = Cc1ccccc1-c1cc(-c2c[nH]nc2-c2ccccn2)ccn1
A. 10

Q. Consider the compound COc1ccc(Nc2nccc(N3CCC(NC(=O)c4cc5ccccc5s4)C3)n2)cc1 (stereo not shown) and give its measured %Inh.
A. 0

Q. Endpoint output: %Inh of CS(=O)(=O)Cc1ccc(Nc2nccc(-c3c(-c4cccc(NC(=O)C5CCCCC5)c4)nn4ncccc34)n2)cc1 . Value?
A. 37

Q. Tell me the measured %Inh of CSc1ccc(-c2nc3n(c2-c2ccncc2)CCC3)cc1 , please.
A. 0

Q. Dear colleague, I am looking for the recorded %Inh of the following compound: CC(=O)c1c(C)c2cnc(Nc3ccc(N4CCNCC4)cn3)nc2n(C2CCCC2)c1=O
A. 0
